# assayExplanation: yeast display, Sf9 membrane polyspecificity reagent, FACS + sequencing; frameworks hold sequencing errors
recordedMetric: polyreactivity (PSR sort gate)

[
  {
    "residueCodes": "QVQLVESGGGLVQAGGSLRLSCAASGSTFHWYAMGWYRQAPGKERELVAAITSGGSTYYADSVKGRFTISRDNAKNTVYLQMNSLKPEDTAVYYCNADRVDSFFDGPSRGYDYWGQGTQVTVSS",
    "polyreactivity (PSR sort gate)": "low polyreactivity"
  },
  {
    "residueCodes": "QVQLVESGGCLVQAGGSPRLSCAASGSILTLYAMGWYRQAPGKERELVAAITSGERTNYADSVKGRFTISRDNAKNTVYLQMNSLKPEDTAVYYCATKRWWGRYDYWGQGTQVTVSS",
    "polyreactivity (PSR sort gate)": "high polyreactivity"
  },
  {
    "residueCodes": "QVQLVESGGGLVQAGGSLRLSCAASGGTIAYAMGWYRQAPGKERELVAAISKHGGRTYYADSVKGRFTISRDNAKNTVYLQMNSLKPEDSAVYYCAADAFRGFYWGQGTQVTVSS",
    "polyreactivity (PSR sort gate)": "high polyreactivity"
  },
  {
    "residueCodes": "QVQLVESGGGLVQAGGSLRLSCAASGSIFFSYAMGWYRQAPGKERELVAGINWSGGSTYADSVKGRFTISRDNAKNPVYLQMNSLTPEDTAVYYCAAKYYSERSRYHYWGQGTQVTVSS",
    "polyreactivity (PSR sort gate)": "low polyreactivity"
  }
]

Consider now this further sequence.
Give its polyreactivity (PSR sort gate) value. Item: QVQLVESGGGLVQAGGSLRLSCAASGRILFYYGMGWYRQAPGKERELVAAISKRGGSTYYADSVKGRFTISRDNAKNTVYLQMNSLKPEDTAVYYCAAVQPAWGNGYWGQGTQVTVSS
high polyreactivity

---

# assayExplanation: yeast display, Sf9 membrane polyspecificity reagent, FACS + sequencing; frameworks hold sequencing errors
recordedMetric: polyreactivity (PSR sort gate)

Reference set, count: 7
[
  {
    "residueCodes": "QVQLVESGGGLVQAGGSLRLSCAASGRIFPFYDMGWYRQAPGKERELVAAITSGTGTYYADSVKGRFTISRDNAKNTVYLQIYSLKPEDTAVYYCNARRYLRGYWGQGTQVTVSS",
    "recordedMetric": "polyreactivity (PSR sort gate)",
    "observedMeasurement": "low polyreactivity"
  },
  {
    "residueCodes": "QVQLVESGGGLVQAGGSLRLSCDASGFIFRYYDMGWYRQAPGKERELVAAISWRGGRTYYADSVKGRFTISRDNAKNTVYLQMNSLKPEVTAVYYCAAGFSLWTYPKPYGEDSWGQGTQVTVSS",
    "recordedMetric": "polyreactivity (PSR sort gate)",
    "observedMeasurement": "high polyreactivity"
  },
  {
    "residueCodes": "QVQLVESGGGLVQAGGSLRLSCAASGRTFANYAMGWYTQAPGKERELVAAITSGGRTYYAVSVKGRFTISRDNAKNTVYLQMNSLKPEDTAVYYCAATRYRVYAQNYDYWGQGTQVTVSS",
    "recordedMetric": "polyreactivity (PSR sort gate)",
    "observedMeasurement": "high polyreactivity"
  },
  {
    "residueCodes": "QVQLVESGGGLVQAGGSLRLSCAASGSIFDPNAMGWYRQAPGKERELVANITNGGRTNYADSVKGRFTISRDNAKNTVYLQMNSLKPEDTAVYYCAKDSPFTSVTVLAPIIYDSWGQGTQVTVSS",
    "recordedMetric": "polyreactivity (PSR sort gate)",
    "observedMeasurement": "low polyreactivity"
  },
  {
    "residueCodes": "QVQLVESGGGLVQAGGSLRLSCAASGFIFTYNTMGWDRQAPGKERELVAAISLRGGNTYYADSVKGRFTISRDNAKNTVYLQMHSLKPEDTAVYYCAALGKYRSGNYFGQGTQVTVSS",
    "recordedMetric": "polyreactivity (PSR sort gate)",
    "observedMeasurement": "high polyreactivity"
  },
  {
    "residueCodes": "QVQLVESGGGLVQAGGSLRLSCAASGRTFPGYAMGWYRQAPGKERELVAGISYRGGSTYYADSVKGRFTISRDIAKNTVYLQMNSLKPEDTAVYYCAREYSRHKGDYWGQGTQVTVSS",
    "recordedMetric": "polyreactivity (PSR sort gate)",
    "observedMeasurement": "low polyreactivity"
  },
  {
    "residueCodes": "QVQLVESGGGLFQAGGSLRLSCAASGTTFAYYTMGWYIQAPGTERELVAAITSGGRTSYADSVKGRFTISRDNAKNTVYLLMNSLKPEDTAFFSCAKCRKPGYYYWGQGNQVTVSS",
    "recordedMetric": "polyreactivity (PSR sort gate)",
    "observedMeasurement": "high polyreactivity"
  }
]

Consider now this further sequence.
Give its polyreactivity (PSR sort gate) value. Item: QVQLVESGGGLVQAGGSLRLSCAASGSIFHTYTMGWYRQAPGKERELVAAITRSGGTTYYADSVKGRFTISRDNAKNTVYLQMNSLKPEDTAVYYCAATHPGAVSFRYYYWGQGTQVTVSS
high polyreactivity

---

# assayExplanation: yeast display, Sf9 membrane polyspecificity reagent, FACS + sequencing; frameworks hold sequencing errors
recordedMetric: polyreactivity (PSR sort gate)

[
  {
    "residueCodes": "HVQLVESGGGLVQAGGSLRLSCAASGRIFLIYAMGWYRQAPGKEWELFAAIRSGGSTNYADSVKGRFTISRDNAKNTVYLLMNSLNPEDTAVYYCAVRSRVYPSRVKYDYWGQGTQVTVSS",
    "observedMeasurement": "high polyreactivity"
  },
  {
    "residueCodes": "QVQLVESGGGLVQAGGSLRVSCAASGSTFTAYAMGWYRQAPGKERELVAAINWSGGTTYYADSVKGRFTISRDNAKNTVYLQMNSLKPEDTAVYYCAVDGNFFGEVRPYDYWGQGTQVTVSS",
    "observedMeasurement": "low polyreactivity"
  },
  {
    "residueCodes": "QVQLVESGGGLVQAGGSLRLSCAASGRTFRVNTMGWYRQAPGQEWELVAAITSSDRTYYADSVKGRFTISRDNAKNTVYLQMNSLKPDDTAVYYCAAYSEYYGVYYWGQGTQVTVSS",
    "observedMeasurement": "low polyreactivity"
  },
  {
    "residueCodes": "QVQLVESGGGLVQAGGSLRLSCAASGIIFYYNAMGWYRQAPGKEREYVASISSRGGSTYYADSVKGRFTISRDNAKNTVYLQMKSLKPEDPAVYYCAAAFDWRRQRYNYWGHGTQVTVSS",
    "observedMeasurement": "high polyreactivity"
  },
  {
    "residueCodes": "QVQLVESGGGLVQAGGSLRLSCAASGRIFPRNAMGWYRQAPGQERELVAAITKSGGSTYYADSVKGRFTISRDNAKNTVYLQMNSLKPEDTAVYYCNAVQYRNYYWGQGTQVTVSS",
    "observedMeasurement": "high polyreactivity"
  },
  {
    "residueCodes": "QVQLVESGGGLVQAGGSLRLSCAASGRFFVPYFIGSYRQAPGTERELVASISDSDTSTYYADSVKGRFTISRDNAKNTVYLQMNSLKPEDTAVYYCNVDYWGQGTQVTLSS",
    "observedMeasurement": "low polyreactivity"
  },
  {
    "residueCodes": "QVQLVESGGGLVQAGGSLRLSCDASGRTLGGYTMGWYRQAPGKERELVAAITTGGSTNYADSVKGRFTISRDNAKNTVYLQMNSLKPEDTAVYYCATDLVFDKRYWYDYWGQGTQVTVSS",
    "observedMeasurement": "low polyreactivity"
  },
  {
    "residueCodes": "QVQIVESGGGLVQAGGSLRLSCAASGYIFPYYAMGWYRQAPGKERELVAGITTDGSSTYYADSVKGRFTISRDNAKNTVYLQMNSLNPEDTAVYYFYVYPGYTWGWYDYWGQGTQVTVSS",
    "observedMeasurement": "low polyreactivity"
  },
  {
    "residueCodes": "QVQLVESGGGLVQARGSLRLSCAASGRTFRSYAMGWYRQAPGKERELVAVITRSTGNTYYADSVKGRFTISRDNAMNTVYLQMNSLKPEDTAVYYCARQYRRYDYWGQGTQVTVSS",
    "observedMeasurement": "high polyreactivity"
  },
  {
    "residueCodes": "QLQLVESGGGLVQAGGSLRLTCAASGSTFTKYDMGWYRQAPGKERELVAAIRSGGDTNYADSVKGRFTISRDNAKYTVYLQMNSLKPEDTAVYYCNTLRNWYYQFDFNYWGQGTQVTVSS",
    "observedMeasurement": "low polyreactivity"
  }
]

Give its polyreactivity (PSR sort gate) value. Item: QVQLVESGGGLVQAGGSLRLSCAASGSIFGVNAMGWYRQAPGKERELVAAISSGGSTNYADSVKGRFTISRDNAKNTVYLQMNSLKPEDTAVSYCNTLWGHQYIGPYRTRECYYWGQGTQVTVSS
low polyreactivity

Give its polyreactivity (PSR sort gate) value. Item: QDQLVESGGGLVQAGGRLRLSCAASGRIIRTYARGWDRQAPGKERELVAAITNGDSTNYADSVMGRFTMSRDNAKNTVYLQMNSLKPEDTAVYYCAVGAVVPGRRRRTYYYWGQGTQVTVSS
high polyreactivity
